# TARGET_OF_ASSAY: Aldo-keto reductase family 1 member B1 (Homo sapiens, UniProt P15121)
# TEST_DETAILS: Inhibitory activity against aldose reductase isolated from human placenta
pIC50: −log10 of the molar value.
MEASUREMENT_NAME: pIC50

* O=C(O)Cc1nn(Cc2nc3cc(F)cc(F)c3s2)c(=O)c2cccnc12 | 7.59
* O=C(O)Cc1nn(Cc2nc3cc(C(F)(F)F)ccc3s2)c2ccccc12 | 7.48
* O=C(O)Cc1nn(Cc2ccc(Br)cc2F)c(=O)c2ncccc12 | 6.12
* O=C(O)Cc1nn(Cc2nc3cc(C(F)(F)F)ccc3s2)c(=O)c2cccnc12 | 7.39
* O=C(O)Cc1nn(Cc2nc3cc(Br)ccc3s2)c2ccc(Cl)cc12 | 7.19

----------
# Lookup of reported IC50 keyed by entry
# TARGET_OF_ASSAY: UniProt:P15121
# TEST_DETAILS: Inhibitory activity against aldose reductase isolated from human placenta
MEASUREMENT_NAME: IC50 (nM)

* O=C(O)Cc1nn(Cc2nc3cc(C(F)(F)F)ccc3s2)c(=O)c2ncccc12 | 2.1
* O=C(O)Cc1nn(Cc2nc3ccccc3o2)c2ccc(Cl)cc12 | 100
* O=C(O)Cc1nn(Cc2nc3cc(F)cc(F)c3s2)c2ccc(Cl)cc12 | 110
* O=C(O)Cc1nn(Cc2ccc(Br)cc2F)c2ccccc12 | 6200
* O=C(O)Cc1nn(Cc2nc3cc(C(F)(F)F)ccc3s2)c2ccc(Cl)cc12 | 35
* O=C(O)Cc1nn(Cc2nc3cc(F)cc(F)c3s2)c2ccccc12 | 30
* O=C(O)Cc1nn(Cc2nc3cc(F)cc(F)c3s2)c(=O)c2c1CCCC2 | 4
* Cc1c(CC(=O)O)nn(Cc2nc3cc(F)cc(F)c3s2)c(=O)c1C | 5
* Cc1c(CC(=O)O)nn(Cc2ccc(Br)cc2F)c(=O)c1C | 290
* O=C(O)Cc1nn(Cc2ccc(Br)cc2F)c(=O)c2cc3ccccc3cc12 | 420
* O=C(O)Cc1nn(Cc2nc3cc(C(F)(F)F)ccc3s2)c(=O)c2c1CCCC2 | 5.2
* Cc1c(CC(=O)O)nn(Cc2nc(-c3cccc(F)c3F)no2)c(=O)c1C | 3.3
* O=C(O)Cc1nn(Cc2nc3ccccc3s2)c2ccc(Cl)cc12 | 58
* O=C(O)Cc1nn(Cc2nc3ccccc3s2)c2ccccc12 | 680
* Cc1c(CC(=O)O)nn(Cc2nc3cc(C(F)(F)F)ccc3s2)c(=O)c1C | 16
* O=C(O)Cc1nn(Cc2nc3cc(F)ccc3s2)c2ccc(Cl)cc12 | 4.6
* O=C(O)Cc1nn(Cc2nc3ccccc3s2)c(=O)c2cc3ccccc3cc12 | 46
* Cc1cc(=O)n(Cc2nc3cc(C(F)(F)F)ccc3s2)nc1CC(=O)O | 18
* O=C(O)Cc1ccc(=O)n(Cc2nc3cc(C(F)(F)F)ccc3s2)n1 | 340
* O=C(O)Cc1nn(Cc2ccc(Br)cc2F)c(=O)c2c1CCCC2 | 32
